- System: UACC-257 melanoma
- method: NCI tumour cell line growth inhibition, 48 h
result.type: GI50

- compound: "COc1ccc(Cn2c(Br)c3c(c2Br)-c2nc(N)sc2CC3)cc1"
  test.target: "UACC-257 melanoma"
  result.type: "GI50"
  measurement: "8.48 µM"
- compound: "O=C1C(C(Nc2ccccc2)c2ccccc2)=C([O-])c2ccccc21.O=C1C(C(Nc2ccccc2)c2ccccc2)=C([O-])c2ccccc21.[Cu+2] (stereo not drawn)"
  test.target: "UACC-257 melanoma"
  result.type: "GI50"
  measurement: "> 100 µM"
- compound: "COc1cc2c(cc1OC)-c1cc(OC)c(OC)cc1C(CN(C)C)C2 (stereo not drawn)"
  test.target: "UACC-257 melanoma"
  result.type: "GI50"
  measurement: "> 10 µM"
